- Tested on: angiotensin-converting enzyme (ACE)
- Construct: purified angiotensin-converting enzyme (ACE) from rabbit lungs; purchased Sigma, St-Louis, Mo; host or cells: purified from rabbit lungs
- EXPERIMENT: Metabolic degradation by purified angiotensin-converting enzyme, HPLC analysis
- Assay type: in vitro ADME, rabbit
- CONDITION DESCRIPTION: rabbit, isolated enzyme ace, pH 7.5
Non-standard residues stand in square brackets, D forms with d. Residues, ends and D or L forms follow the SMILES beside them. 2Nal = N[C@@H](Cc1ccc2ccccc2c1)C(=O)O; d2Nal = N[C@H](Cc1ccc2ccccc2c1)C(=O)O
Please go through the items and note down their metabolised at 0.5 h, 42.1 μmol/L.
One number for each entry, in %.

Worked cases, answers included:
[
  {
    "COMPOUND": "CC[C@H](C)[C@H](NC(=O)[C@H](Cc1ccc2ccccc2c1)NC(=O)[C@H](CO)NC(=O)[C@H](Cc1ccccc1)NC(=O)CNC(=O)[C@@H]1CCCN1C(=O)[C@@H]1CCCN1C(=O)[C@H](CCCNC(=N)N)NC(=O)[C@H](CCCCN)NC(C)=O)C(=O)O [Compound 20, AcLys(L-βNal^7, Ile^8)desArg^9BK] (Ac-KRPPGFS[2Nal]I-OH; C-terminus assumed)",
    "UNIT OF MEASURE": "%",
    "metabolised at 0.5 h, 42.1 μmol/L": 99
  },
  {
    "COMPOUND": "CC(=O)N[C@@H](CCCCN)C(=O)N[C@@H](CCCNC(=N)N)C(=O)N1CCC[C@H]1C(=O)N1CCC[C@H]1C(=O)NCC(=O)N[C@@H](Cc1ccccc1)C(=O)N[C@@H](CO)C(=O)N[C@H](Cc1ccc2ccccc2c1)C(=O)N[C@@H](CC(C)C)C(=O)O [Compound 18, AcLys(D-βNal^7, Leu^8)desArg^9BK] (Ac-KRPPGFS[d2Nal]L-OH; C-terminus assumed)",
    "UNIT OF MEASURE": "%",
    "metabolised at 0.5 h, 42.1 μmol/L": 22
  }
]

Turning now to a further record.
Inquiry: Param item = CC(C)C[C@H](NC(=O)[C@@H]1CCCN1C(=O)[C@H](CO)NC(=O)[C@H](Cc1ccccc1)NC(=O)CNC(=O)[C@@H]1CCCN1C(=O)[C@@H]1CCCN1C(=O)[C@H](CCCNC(=N)N)NC(=O)[C@@H](N)CCCCN)C(=O)O [Compound 2, Lys(Leu^8)desArg^9BK, reference compound] ; retrieve measured metabolised at 0.5 h, 42.1 μmol/L.
Reply text: 74

* * *

Please go through the items and note down their Kb.
- STUDY SYSTEM: human B1 receptor (Homo sapiens, UniProt P46663)
- Sequence (P46663 whole entry): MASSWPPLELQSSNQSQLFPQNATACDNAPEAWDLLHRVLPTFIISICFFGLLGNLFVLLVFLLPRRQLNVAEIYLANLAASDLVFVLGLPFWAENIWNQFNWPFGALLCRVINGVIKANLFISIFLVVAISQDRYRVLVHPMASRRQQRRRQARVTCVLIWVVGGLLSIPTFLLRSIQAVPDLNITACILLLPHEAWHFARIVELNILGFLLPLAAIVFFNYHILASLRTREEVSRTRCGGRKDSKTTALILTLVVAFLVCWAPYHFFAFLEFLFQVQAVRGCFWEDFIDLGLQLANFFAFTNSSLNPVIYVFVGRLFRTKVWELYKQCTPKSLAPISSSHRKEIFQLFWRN
- EXPERIMENT: cell-based
- CONDITION DESCRIPTION: Human umbilical vein B1 receptor pA2, vs desArg9BK, HOE140 400 nmol/L present
Non-standard residues stand in square brackets, D forms with d. Residues, ends and D or L forms follow the SMILES beside them. Tyr(3,5-I2) = N[C@@H](Cc1cc(I)c(O)c(I)c1)C(=O)O; Oic = O=C(O)[C@@H]1C[C@@H]2CCCC[C@@H]2N1; 2Nal = N[C@@H](Cc1ccc2ccccc2c1)C(=O)O; d2Nal = N[C@H](Cc1ccc2ccccc2c1)C(=O)O; Hyp = O=C(O)[C@@H]1C[C@@H](O)CN1; Tic = O=C(O)[C@@H]1Cc2ccccc2CN1; dTic = O=C(O)[C@H]1Cc2ccccc2CN1; 2Thi = N[C@@H](Cc1cccs1)C(=O)O; Ahx = NCCCCCC(=O)O; Sar = CNCC(=O)O

Worked cases, answers included:
[
  {
    "COMPOUND": "CC[C@H](C)[C@H](NC(=O)[C@@H](Cc1ccc2ccccc2c1)NC(=O)[C@H](CO)NC(=O)[C@H](Cc1ccccc1)NC(=O)CNC(=O)[C@@H]1CCCN1C(=O)[C@@H]1CCCN1C(=O)[C@H](CCCNC(=N)N)NC(=O)[C@H](CCCCN)NC(=O)CCCCCNC(=O)[C@H](Cc1cc(I)c(O)c(I)c1)NC(=O)CNC)C(=O)O [Compound 30] (H-[Sar][Tyr(3,5-I2)][Ahx]KRPPGFS[d2Nal]I-OH; N-terminus and C-terminus assumed)",
    "STUDY SYSTEM": "human B1 receptor (Homo sapiens, UniProt P46663)",
    "RESULT": "4.79 nM"
  },
  {
    "COMPOUND": "CC[C@H](C)[C@H](NC(=O)[C@@H](Cc1ccc2ccccc2c1)NC(=O)[C@H](CO)NC(=O)[C@H](Cc1ccccc1)NC(=O)CNC(=O)[C@@H]1CCCN1C(=O)[C@@H]1CCCN1C(=O)[C@H](CCCNC(=N)N)NC(=O)CNC)C(=O)O [Compound 26, Sar(D-βNal^7, Ile^8)desArg^9BK] (H-[Sar]RPPGFS[d2Nal]I-OH; N-terminus and C-terminus assumed)",
    "STUDY SYSTEM": "human B1 receptor (Homo sapiens, UniProt P46663)",
    "RESULT": "47.9 nM"
  },
  {
    "COMPOUND": "N=C(N)NCCC[C@@H](N)C(=O)N[C@@H](CCCNC(=N)N)C(=O)N1CCC[C@H]1C(=O)N1C[C@H](O)C[C@H]1C(=O)NCC(=O)N[C@@H](Cc1cccs1)C(=O)N[C@@H](CO)C(=O)N1Cc2ccccc2C[C@@H]1C(=O)N1[C@H](C(=O)O)C[C@@H]2CCCC[C@@H]21 [Compound 31, reference compound] (H-[dR]RP[Hyp]G[2Thi]S[dTic][Oic]-OH; N-terminus and C-terminus assumed)",
    "STUDY SYSTEM": "human B1 receptor (Homo sapiens, UniProt P46663)",
    "RESULT": "51.3 nM"
  },
  {
    "COMPOUND": "CC[C@H](C)[C@H](NC(=O)[C@@H](Cc1ccc2ccccc2c1)NC(=O)[C@H](CO)NC(=O)[C@H](Cc1ccccc1)NC(=O)CNC(=O)[C@@H]1CCCN1C(=O)[C@@H]1CCCN1C(=O)[C@H](CCCN=C(N)N)NC(=O)[C@H](CCCCN)NC(C)=O)C(=O)O [AcLys(D-βNal^7, Ile^8)desArg^9BK] (Ac-KRPPGFS[d2Nal]I-OH)",
    "STUDY SYSTEM": "human B1 receptor (Homo sapiens, UniProt P46663)",
    "RESULT": "3.24 nM"
  },
  {
    "COMPOUND": "CC(=O)N[C@@H](CCCCN)C(=O)N[C@@H](CCCNC(=N)N)C(=O)N1CCC[C@H]1C(=O)N1CCC[C@H]1C(=O)NCC(=O)N[C@@H](Cc1ccccc1)C(=O)N[C@@H](CO)C(=O)N[C@H](Cc1ccc2ccccc2c1)C(=O)N[C@@H](CC(C)C)C(=O)O [Compound 18, AcLys(D-βNal^7, Leu^8)desArg^9BK] (Ac-KRPPGFS[d2Nal]L-OH; C-terminus assumed)",
    "STUDY SYSTEM": "human B1 receptor (Homo sapiens, UniProt P46663)",
    "RESULT": "35.5 nM"
  },
  {
    "COMPOUND": "CC(C)C[C@H](NC(=O)[C@@H](Cc1ccc2ccccc2c1)NC(=O)[C@H](CO)NC(=O)[C@H](Cc1ccccc1)NC(=O)CNC(=O)[C@@H]1CCCN1C(=O)[C@@H]1CCCN1C(=O)[C@H](CCCNC(=N)N)NC(=O)[C@H](N)CCCNC(=N)N)C(=O)O [Compound 24, D-Arg(D-βNal^7, Leu^8)desArg^9BK] (H-[dR]RPPGFS[d2Nal]L-OH; N-terminus and C-terminus assumed)",
    "STUDY SYSTEM": "human B1 receptor (Homo sapiens, UniProt P46663)",
    "RESULT": "50.1 nM"
  },
  {
    "COMPOUND": "CC(C)C[C@H](NC(=O)[C@H]1Cc2ccccc2CN1C(=O)[C@H](CO)NC(=O)[C@H](Cc1ccccc1)NC(=O)CNC(=O)[C@@H]1CCCN1C(=O)[C@@H]1CCCN1C(=O)[C@@H](N)CCCNC(=N)N)C(=O)O [Compound 8, (D-Tic^7, Leu^8)desArg^9BK] (H-RPPGFS[dTic]L-OH; N-terminus and C-terminus assumed)",
    "STUDY SYSTEM": "human B1 receptor (Homo sapiens, UniProt P46663)",
    "RESULT": "2750 nM"
  },
  {
    "COMPOUND": "CC[C@H](C)[C@H](NC(=O)[C@H](Cc1ccc2ccccc2c1)NC(=O)[C@H](CO)NC(=O)[C@H](Cc1ccccc1)NC(=O)CNC(=O)[C@@H]1CCCN1C(=O)[C@@H]1CCCN1C(=O)[C@H](CCCNC(=N)N)NC(=O)[C@H](CCCCN)NC(C)=O)C(=O)O [Compound 20, AcLys(L-βNal^7, Ile^8)desArg^9BK] (Ac-KRPPGFS[2Nal]I-OH; C-terminus assumed)",
    "STUDY SYSTEM": "human B1 receptor (Homo sapiens, UniProt P46663)",
    "RESULT": "6920 nM"
  },
  {
    "COMPOUND": "CC[C@H](C)[C@H](NC(=O)[C@H]1Cc2ccccc2CN1C(=O)[C@H](CO)NC(=O)[C@H](Cc1ccccc1)NC(=O)CNC(=O)[C@@H]1CCCN1C(=O)[C@@H]1CCCN1C(=O)[C@H](CCCNC(=N)N)NC(=O)[C@H](N)CCCNC(=N)N)C(=O)O [Compound 13, D-Arg(D-Tic^7, Ile^8)desArg^9BK] (H-[dR]RPPGFS[dTic]I-OH; N-terminus and C-terminus assumed)",
    "STUDY SYSTEM": "human B1 receptor (Homo sapiens, UniProt P46663)",
    "RESULT": "22.9 nM"
  },
  {
    "COMPOUND": "CC[C@H](C)[C@H](NC(=O)[C@@H]1Cc2ccccc2CN1C(=O)[C@H](CO)NC(=O)[C@H](Cc1ccccc1)NC(=O)CNC(=O)[C@@H]1CCCN1C(=O)[C@@H]1CCCN1C(=O)[C@H](CCCNC(=N)N)NC(=O)[C@H](N)CCCNC(=N)N)C(=O)O [Compound 14, D-Arg(L-Tic^7, Ile^8)desArg^9BK] (H-[dR]RPPGFS[Tic]I-OH; N-terminus and C-terminus assumed)",
    "STUDY SYSTEM": "human B1 receptor (Homo sapiens, UniProt P46663)",
    "RESULT": "4680 nM"
  }
]

Inquiry: Param item = CC[C@H](C)[C@H](NC(=O)[C@@H](Cc1ccc2ccccc2c1)NC(=O)[C@H](CO)NC(=O)[C@H](Cc1ccccc1)NC(=O)CNC(=O)[C@@H]1CCCN1C(=O)[C@@H]1CCCN1C(=O)[C@H](CCCNC(=N)N)NC(=O)[C@H](CCCCN)NC(=O)CCCCCNC(=O)[C@H](Cc1ccc(O)cc1)NC(=O)CNC)C(=O)O [Compound 29, SarTyrεAhxLys(D-βNal^7, Ile^8)desArg^9BK] (H-[Sar]Y[Ahx]KRPPGFS[d2Nal]I-OH; N-terminus and C-terminus assumed) ; retrieve measured Kb.
Reply text: 4.07 nM

Data origin, for the record: patent US7041785B1
